target: TrkB (Homo sapiens (Human)); test: TrkB activity, off-chip mobility shift assay (LabChip 3000); assay type: biochemical; conditions: 70 μM ATP (ATP Km); n/d = none detected
Sequence (Q16620 32-822): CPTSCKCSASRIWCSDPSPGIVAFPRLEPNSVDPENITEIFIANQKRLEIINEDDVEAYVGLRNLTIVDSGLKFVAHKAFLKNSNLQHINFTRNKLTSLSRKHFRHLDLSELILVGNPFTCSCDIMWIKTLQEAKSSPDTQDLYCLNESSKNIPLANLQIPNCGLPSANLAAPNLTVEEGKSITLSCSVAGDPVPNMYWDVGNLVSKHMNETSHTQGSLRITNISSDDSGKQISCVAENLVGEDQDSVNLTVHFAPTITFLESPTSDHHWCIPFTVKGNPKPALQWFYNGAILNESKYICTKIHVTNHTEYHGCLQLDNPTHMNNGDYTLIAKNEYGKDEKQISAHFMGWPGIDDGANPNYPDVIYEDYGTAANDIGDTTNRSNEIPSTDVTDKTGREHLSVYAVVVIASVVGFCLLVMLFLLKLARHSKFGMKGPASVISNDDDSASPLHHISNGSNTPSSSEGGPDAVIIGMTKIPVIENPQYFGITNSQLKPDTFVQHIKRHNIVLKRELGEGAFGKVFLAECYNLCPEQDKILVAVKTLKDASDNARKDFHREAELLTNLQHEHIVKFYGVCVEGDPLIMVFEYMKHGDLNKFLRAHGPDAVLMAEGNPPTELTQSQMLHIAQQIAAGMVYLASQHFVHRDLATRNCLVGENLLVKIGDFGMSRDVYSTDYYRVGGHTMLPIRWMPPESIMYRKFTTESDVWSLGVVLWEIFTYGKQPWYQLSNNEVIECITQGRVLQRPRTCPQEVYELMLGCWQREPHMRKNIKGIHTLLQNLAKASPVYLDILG
measurementKind: IC50 (nM)

Given the entry COc1ccc(COc2ccc(Cn3cnc4cc(-c5noc(C6CCNCC6)n5)ccc43)cc2OC)cn1 , report its measured IC50.
317

Given the entry COc1cc(C(C)n2cnc3cc(-c4cnn(C)c4)cnc32)ccc1OCc1ccc(C(F)(F)F)nc1 (centres unmarked) , report its measured IC50.
1

Given the entry COc1cc(Cn2c(N)nc3cc(-c4cnn(C)c4)cnc32)ccc1OCc1ccc(OC(F)(F)F)cc1 , report its measured IC50.
0.2

Given the entry COc1ccc(COc2ccc(Cn3c(N)nc4cc(-c5cccnc5)cnc43)cc2OC)cn1 , report its measured IC50.
2

Given the entry COc1cc(C(C)n2c(N)nc3cc(-c4cnn(C)c4)cnc32)ccc1OCc1ccc(C(F)(F)F)nc1 (centres unmarked) , report its measured IC50.
0.6

A = COc1cc(Cn2c(N)nc3cc(-c4cnn(C)c4)cnc32)ccc1OCc1ccc(C(F)(F)C(F)(F)F)cc1
B = COc1ccc(COc2ccc(Cn3cnc4cc(-n5cc(C(C)(C)N)nn5)cnc43)cc2OC)cn1
Please indicate which entry, A or B , has the lower recorded IC50 value. State your choice using its label.
A
(A: 0.6 nM, B: 43 nM)
